Hey, just so you know, these numbers are from BigSolDB 2.1.

Conditions: in isopropanol, 343.15 K
property.label: solubility (mole fraction)

**Query** Request the reported solubility (mole fraction) associated with CC1(C)COP(=O)(C(Nc2ccccc2)c2ccccc2)OC1 (stereo unspecified)
**Result** 0.00791

###

Details: in acetone, 298.65 K
property.label: solubility (mole fraction)
Answers are plain numbers.

**Query** Request the reported solubility (mole fraction) associated with CC1(C)COP(=O)(C(Nc2ccccc2)c2ccccc2)OC1 (stereo unspecified)
**Result** 0.00728

###

Details: in tetrachloromethane, 312.55 K
property.label: solubility (mole fraction)
One number for each entry.

**Query** Request the reported solubility (mole fraction) associated with CC1(C)COP(=O)(C(Nc2ccccc2)c2ccccc2)OC1 (stereo unspecified)
**Result** 0.00085

###

Conditions: in methanol, 289.15 K
property.label: solubility (mole fraction)
Give bare numbers.

**Query** Request the reported solubility (mole fraction) associated with CC1(C)COP(=O)(C(Nc2ccccc2)c2ccccc2)OC1 (stereo unspecified)
**Result** 0.00246

###

Conditions: in isopropanol, 321.55 K
property.label: solubility (mole fraction)
One number for each entry.

**Query** Request the reported solubility (mole fraction) associated with CC1(C)COP(=O)(C(Nc2ccccc2)c2ccccc2)OC1 (stereo unspecified)
**Result** 0.00318

###

Settings: in chloroform, 298.35 K
property.label: solubility (mole fraction)

**Query** Request the reported solubility (mole fraction) associated with CC1(C)COP(=O)(C(Nc2ccccc2)c2ccccc2)OC1 (stereo unspecified)
**Result** 0.0444

###

Settings: in dichloromethane, 288.65 K
property.label: solubility (mole fraction)
Answers are plain numbers.

**Query** Request the reported solubility (mole fraction) associated with CC1(C)COP(=O)(C(Nc2ccccc2)c2ccccc2)OC1 (stereo unspecified)
**Result** 0.012

###

Conditions: in methanol, 278.15 K
property.label: solubility (mole fraction)

**Query** Request the reported solubility (mole fraction) associated with CC1(C)COP(=O)(C(Nc2ccccc2)c2ccccc2)OC1 (stereo unspecified)
**Result** 0.00151

###

Conditions: in tetrachloromethane, 278.15 K
property.label: solubility (mole fraction)
Numbers only.

**Query** Request the reported solubility (mole fraction) associated with CC1(C)COP(=O)(C(Nc2ccccc2)c2ccccc2)OC1 (stereo unspecified)
**Result** 0.00015

###

Settings: in ethyl acetate, 332.75 K
property.label: solubility (mole fraction)

**Query** Request the reported solubility (mole fraction) associated with CC1(C)COP(=O)(C(Nc2ccccc2)c2ccccc2)OC1 (stereo unspecified)
**Result** 0.0097

###

Conditions: in tetrachloromethane, 321.55 K
property.label: solubility (mole fraction)

**Query** Request the reported solubility (mole fraction) associated with CC1(C)COP(=O)(C(Nc2ccccc2)c2ccccc2)OC1 (stereo unspecified)
**Result** 0.00121

###

Conditions: in benzene, 278.65 K
property.label: solubility (mole fraction)
Give bare numbers.

**Query** Request the reported solubility (mole fraction) associated with CC1(C)COP(=O)(C(Nc2ccccc2)c2ccccc2)OC1 (stereo unspecified)
**Result** 0.0011

###

Details: in benzene, 337.55 K
property.label: solubility (mole fraction)
Numbers only.

**Query** Request the reported solubility (mole fraction) associated with CC1(C)COP(=O)(C(Nc2ccccc2)c2ccccc2)OC1 (stereo unspecified)
**Result** 0.0107

###

Conditions: in isopropanol, 332.15 K
property.label: solubility (mole fraction)

**Query** Request the reported solubility (mole fraction) associated with CC1(C)COP(=O)(C(Nc2ccccc2)c2ccccc2)OC1 (stereo unspecified)
**Result** 0.00485

###

Conditions: in benzene, 313.15 K
property.label: solubility (mole fraction)

**Query** Request the reported solubility (mole fraction) associated with CC1(C)COP(=O)(C(Nc2ccccc2)c2ccccc2)OC1 (stereo unspecified)
**Result** 0.00464

###

Conditions: in 1,4-dioxane, 313.15 K
property.label: solubility (mole fraction)
Answers are plain numbers.

**Query** Request the reported solubility (mole fraction) associated with CC1(C)COP(=O)(C(Nc2ccccc2)c2ccccc2)OC1 (stereo unspecified)
**Result** 0.0139

###

Settings: in 1,2-dichloroethane, 313.15 K
property.label: solubility (mole fraction)
One number for each entry.

**Query** Request the reported solubility (mole fraction) associated with CC1(C)COP(=O)(C(Nc2ccccc2)c2ccccc2)OC1 (stereo unspecified)
**Result** 0.031

###

Conditions: in dichloromethane, 283.25 K
property.label: solubility (mole fraction)
Numbers only.

**Query** Request the reported solubility (mole fraction) associated with CC1(C)COP(=O)(C(Nc2ccccc2)c2ccccc2)OC1 (stereo unspecified)
**Result** 0.00994

###

Settings: in isopropanol, 283.15 K
property.label: solubility (mole fraction)
Give bare numbers.

**Query** Request the reported solubility (mole fraction) associated with CC1(C)COP(=O)(C(Nc2ccccc2)c2ccccc2)OC1 (stereo unspecified)
**Result** 0.0005

###

Settings: in benzene, 332.65 K
property.label: solubility (mole fraction)

**Query** Request the reported solubility (mole fraction) associated with CC1(C)COP(=O)(C(Nc2ccccc2)c2ccccc2)OC1 (stereo unspecified)
**Result** 0.0093

###

Details: in acetonitrile, 285.65 K
property.label: solubility (mole fraction)

**Query** Request the reported solubility (mole fraction) associated with CC1(C)COP(=O)(C(Nc2ccccc2)c2ccccc2)OC1 (stereo unspecified)
**Result** 0.0068

###

Conditions: in acetone, 288.15 K
property.label: solubility (mole fraction)

**Query** Request the reported solubility (mole fraction) associated with CC1(C)COP(=O)(C(Nc2ccccc2)c2ccccc2)OC1 (stereo unspecified)
**Result** 0.00432

###

Conditions: in chloroform, 307.75 K
property.label: solubility (mole fraction)

**Query** Request the reported solubility (mole fraction) associated with CC1(C)COP(=O)(C(Nc2ccccc2)c2ccccc2)OC1 (stereo unspecified)
**Result** 0.0492

###

Conditions: in 1,2-dichloroethane, 303.15 K
property.label: solubility (mole fraction)
Give bare numbers.

**Query** Request the reported solubility (mole fraction) associated with CC1(C)COP(=O)(C(Nc2ccccc2)c2ccccc2)OC1 (stereo unspecified)
**Result** 0.0229

###

Details: in methanol, 298.15 K
property.label: solubility (mole fraction)
Give bare numbers.

**Query** Request the reported solubility (mole fraction) associated with CC1(C)COP(=O)(C(Nc2ccccc2)c2ccccc2)OC1 (stereo unspecified)
**Result** 0.00367

###

Conditions: in chloroform, 303.25 K
property.label: solubility (mole fraction)

**Query** Request the reported solubility (mole fraction) associated with CC1(C)COP(=O)(C(Nc2ccccc2)c2ccccc2)OC1 (stereo unspecified)
**Result** 0.0471

###

Conditions: in 1,4-dioxane, 303.15 K
property.label: solubility (mole fraction)
Numbers only.

**Query** Request the reported solubility (mole fraction) associated with CC1(C)COP(=O)(C(Nc2ccccc2)c2ccccc2)OC1 (stereo unspecified)
**Result** 0.0103

###

Details: in dichloromethane, 302.95 K
property.label: solubility (mole fraction)

**Query** Request the reported solubility (mole fraction) associated with CC1(C)COP(=O)(C(Nc2ccccc2)c2ccccc2)OC1 (stereo unspecified)
**Result** 0.0232

###

Conditions: in THF, 313.15 K
property.label: solubility (mole fraction)
Numbers only.

**Query** Request the reported solubility (mole fraction) associated with CC1(C)COP(=O)(C(Nc2ccccc2)c2ccccc2)OC1 (stereo unspecified)
**Result** 0.0152

###

Settings: in benzene, 343.15 K
property.label: solubility (mole fraction)

**Query** Request the reported solubility (mole fraction) associated with CC1(C)COP(=O)(C(Nc2ccccc2)c2ccccc2)OC1 (stereo unspecified)
**Result** 0.0123

###

Details: in 1,2-dichloroethane, 283.65 K
property.label: solubility (mole fraction)
One number for each entry.

**Query** Request the reported solubility (mole fraction) associated with CC1(C)COP(=O)(C(Nc2ccccc2)c2ccccc2)OC1 (stereo unspecified)
**Result** 0.0119

###

Details: in acetonitrile, 317.65 K
property.label: solubility (mole fraction)

**Query** Request the reported solubility (mole fraction) associated with CC1(C)COP(=O)(C(Nc2ccccc2)c2ccccc2)OC1 (stereo unspecified)
**Result** 0.0192

###

Details: in benzene, 327.15 K
property.label: solubility (mole fraction)
Give bare numbers.

**Query** Request the reported solubility (mole fraction) associated with CC1(C)COP(=O)(C(Nc2ccccc2)c2ccccc2)OC1 (stereo unspecified)
**Result** 0.00711

###

Conditions: in THF, 307.95 K
property.label: solubility (mole fraction)
Answers are plain numbers.

**Query** Request the reported solubility (mole fraction) associated with CC1(C)COP(=O)(C(Nc2ccccc2)c2ccccc2)OC1 (stereo unspecified)
**Result** 0.0133

###

Settings: in chloroform, 283.65 K
property.label: solubility (mole fraction)
One number for each entry.

**Query** Request the reported solubility (mole fraction) associated with CC1(C)COP(=O)(C(Nc2ccccc2)c2ccccc2)OC1 (stereo unspecified)
**Result** 0.0382

###

Settings: in isopropanol, 298.15 K
property.label: solubility (mole fraction)
Answers are plain numbers.

**Query** Request the reported solubility (mole fraction) associated with CC1(C)COP(=O)(C(Nc2ccccc2)c2ccccc2)OC1 (stereo unspecified)
**Result** 0.00106
